procedure details: Toxicity in sheep RBC assessed as hemolytic activity at 100 uM after 1 hr
Assay type: cell-based, Ovis aries, Erythrocyte
conditions used: sheep red blood cells, read-out: Activity
What hemolysis at 1 h, 100 µM was measured for each of the following?
Give bare numbers, in %.

Solved cases below.
chemical smiles: CC(C)CN1CC(=O)N[C@@H](Cc2c[nH]c3ccccc23)C(=O)NN(CC(C)C)CC(=O)N[C@@H](CCCCN)C(=O)NN(CCCCN)CC(=O)N[C@@H](Cc2c[nH]c3ccccc23)C(=O)N1
hemolysis at 1 h, 100 µM / %: 0
//
chemical smiles: CC(C)C[C@@H]1NC(=O)CN(Cc2cccc3ccccc23)NC(=O)[C@H](CCCNC(=N)N)NC(=O)CN(CCCNC(=N)N)NC(=O)[C@H](CC(C)C)NC1=O
hemolysis at 1 h, 100 µM / %: 0
//
chemical smiles: CC(C)C[C@H]1NC(=O)CN(CCCCN)NC(=O)[C@H](CCCCN)NC(=O)CN(Cc2cccc3ccccc23)NC(=O)CN(CC(C)C)NC1=O
hemolysis at 1 h, 100 µM / %: 0
//
chemical smiles: CCCCCCCCN1CC(=O)N[C@@H](Cc2c[nH]c3ccccc23)C(=O)NN(CCCCCCCC)CC(=O)N[C@@H](CCCCN)C(=O)NN(CCCCN)CC(=O)N[C@@H](Cc2c[nH]c3ccccc23)C(=O)N1
hemolysis at 1 h, 100 µM / %: 55

Okay, here is my list. What is hemolysis at 1 h, 100 µM for each of these?
1. CC(C)CN1CC(=O)N[C@@H](Cc2c[nH]c3ccccc23)C(=O)NN(CC(C)C)CC(=O)N[C@@H](CCCCN)C(=O)NN(CCCCN)CC(=O)N[C@@H](CCCCN)C(=O)N1
2. CC(C)C[C@@H]1NC(=O)CN(Cc2ccc(-c3ccccc3)cc2)NC(=O)[C@H](CCCCN)NC(=O)CN(CCCCN)NC(=O)CN(Cc2ccc(-c3ccccc3)cc2)NC1=O
3. CC(C)CN1CC(=O)N[C@@H](Cc2c[nH]c3ccccc23)C(=O)NN(CCCCN)CC(=O)N[C@@H](CCCCN)C(=O)NN(CCCCN)CC(=O)N[C@@H](Cc2c[nH]c3ccccc23)C(=O)N1

Result:
1. 0
2. 30
3. 0

Okay, here is my list. What is hemolysis at 1 h, 100 µM for each of these?
1. N=C(N)NCCC[C@@H]1NC(=O)CN(CC2CCCCC2)NC(=O)[C@H](Cc2c[nH]c3ccccc23)NC(=O)CN(Cc2ccc(F)cc2)NC(=O)[C@H](Cc2c[nH]c3ccccc23)NC(=O)CN(CCCCN)NC1=O
2. N=C(N)NCCC[C@@H]1NC(=O)CN(CCCCN)NC(=O)CN(Cc2ccc3ccccc3c2)NC(=O)[C@H](Cc2ccccc2)NC(=O)CN(Cc2ccc3ccccc3c2)NC1=O
3. CC(C)C[C@@H]1NC(=O)CN(Cc2ccc3ccccc3c2)NC(=O)[C@H](CCCCN)NC(=O)CN(CCCCN)NC(=O)CN(Cc2ccc3ccccc3c2)NC1=O
4. CCCCCCCCCCCCN1CC(=O)N[C@@H](Cc2c[nH]c3ccccc23)C(=O)NN(Cc2cccc3ccccc23)CC(=O)N[C@@H](CCCCN)C(=O)NN(CCCCN)CC(=O)N[C@@H](CC2CCCCC2)C(=O)N1
5. C[C@@H](O)[C@@H]1NC(=O)CN(CCCCN)NC(=O)[C@H](Cc2ccccc2)NC(=O)CN(Cc2cccc3ccccc23)NC(=O)[C@H](CO)NC(=O)CN(CCCCN)NC(=O)[C@H](CO)NC(=O)CN(CCCCN)NC1=O
6. CC(C)C[C@@H]1NC(=O)CN(Cc2ccc(-c3ccccc3)cc2)NC(=O)[C@H](CC(C)C)NC(=O)CN(Cc2ccc(-c3ccccc3)cc2)NC(=O)[C@H](CCCCN)NC(=O)CN(CCCCN)NC1=O

Result:
2.5
1
0
62
0
90
